# system name: Calcium/calmodulin-dependent protein kinase type II subunit delta (Homo sapiens) (UniProt Q13557);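 further: mean percent inhibition of CAMK2D, from screening of the GSK Published Kinase Inhibitor Set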
# Sequence (Q13557 whole entry): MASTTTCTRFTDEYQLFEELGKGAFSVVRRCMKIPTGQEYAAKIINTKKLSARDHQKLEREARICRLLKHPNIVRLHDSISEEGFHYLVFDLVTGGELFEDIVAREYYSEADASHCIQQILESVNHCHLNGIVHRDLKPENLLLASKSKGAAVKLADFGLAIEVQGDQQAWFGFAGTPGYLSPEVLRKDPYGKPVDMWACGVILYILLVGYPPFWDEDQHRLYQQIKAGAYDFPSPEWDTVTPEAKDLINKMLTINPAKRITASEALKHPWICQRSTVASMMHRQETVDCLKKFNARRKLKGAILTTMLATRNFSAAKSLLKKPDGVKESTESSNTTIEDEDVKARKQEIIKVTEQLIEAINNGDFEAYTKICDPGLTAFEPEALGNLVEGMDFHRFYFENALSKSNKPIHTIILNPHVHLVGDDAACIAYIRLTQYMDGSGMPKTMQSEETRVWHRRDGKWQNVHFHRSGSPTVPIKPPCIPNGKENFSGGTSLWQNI
# details: at 1 µM
Please provide measured inhibition for the entries that follow.
Quick note: give the figure in %, leave out the unit.

q: # query: inhibition of entry COc1cccc(COc2cc(-n3cnc4ccccc43)sc2C(N)=O)c1
a: -0.84

q: What value of measured inhibition is listed for CCn1c(-c2nonc2N)nc2c(C#CC(C)(C)O)ncc(OC[C@@H]3CCCN3)c21 ?
a: 0.35

q: Need inhibition of COc1cc2c(cc1Nc1nc(Nc3ccsc3C(N)=O)c3cc[nH]c3n1)N(C(=O)CN(C)C)CCC2 , thanks.
a: 13

q: Recorded inhibition of COc1cc(C=NNc2ncnc3c2cnn3Cc2ccccc2)ccc1O , please.
a: -0.47

q: Entry CCn1c(-c2nonc2N)nc2c(C#CCN)ncc(OCCCN)c21 : reported inhibition = ?
a: -4.58

q: Name the recorded inhibition for NC(=O)c1sc(-n2cnc3cc(C(F)(F)F)ccc32)cc1OCc1ccccc1Br .
a: 1.35

q: Consider the compound NS(=O)(=O)c1ccc(N/C=C2\C(=O)Nc3ccc4ncsc4c32)cc1 and give its measured inhibition.
a: 16.3

q: Given the entry NS(=O)(=O)c1ccc(-c2ccc3c(NC(=O)C4CC4)n[nH]c3c2)cc1 , report its measured inhibition.
a: 3.65

These data points were gathered from ChEMBL document CHEMBL1961873.
